Origin of measurements: the kinase profiling compilation of Christmann-Franck et al. (2016)

Some compounds, each annotated with its measured kinase still bound, per cent of control.
biological target: PRKAA2 (human) (UniProt P54646); assay: KINOMEscan competition binding; details: compound 10.0 µM
Sequence (P54646 whole entry, looked up): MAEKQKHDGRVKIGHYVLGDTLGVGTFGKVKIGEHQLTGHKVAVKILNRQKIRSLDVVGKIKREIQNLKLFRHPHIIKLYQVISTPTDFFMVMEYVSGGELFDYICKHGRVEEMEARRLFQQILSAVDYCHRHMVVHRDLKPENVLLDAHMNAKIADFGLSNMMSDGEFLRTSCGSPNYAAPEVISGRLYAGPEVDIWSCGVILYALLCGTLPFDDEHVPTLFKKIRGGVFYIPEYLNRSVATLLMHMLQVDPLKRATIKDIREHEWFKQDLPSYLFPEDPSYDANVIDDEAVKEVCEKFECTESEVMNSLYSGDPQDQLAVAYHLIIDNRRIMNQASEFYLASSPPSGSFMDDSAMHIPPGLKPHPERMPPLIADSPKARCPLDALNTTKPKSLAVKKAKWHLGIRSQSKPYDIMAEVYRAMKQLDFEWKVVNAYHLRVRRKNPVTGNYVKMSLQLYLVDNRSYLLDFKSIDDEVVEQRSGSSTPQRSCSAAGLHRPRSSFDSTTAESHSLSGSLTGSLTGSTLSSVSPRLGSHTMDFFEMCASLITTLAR
Express your answer in %, writing the number without its unit.

COc1ccc(-c2ccc3c(N4CCOCC4)nc(N4C[C@@H](C)O[C@@H](C)C4)nc3n2)cc1CO
100
CCC(=O)N1CCN(c2ccc(-n3c(=O)ccc4cnc5ccc(-c6cnc7ccccc7c6)cc5c43)cc2C(F)(F)F)CC1
74
CC(C)n1nc(-c2cc3cc(O)ccc3[nH]2)c2c(N)ncnc21
67

// switching to the query compound
Could you share which kinase still bound, per cent of control value was measured for COC(=O)Nc1ccc(-c2nc(N3CCOCC3)c3cnn(C4CCN(C(=O)OC)CC4)c3n2)cc1 ?
100

---

target: CDK8 (human); assay: KINOMEscan competition binding; settings: compound 10.0 µM
Below, each of the compounds is paired with its reported per cent of control value.
Report the figure in % without appending any unit label.

Reference set (2 entries):
CC(C)n1nc(-c2cc3cc(O)ccc3[nH]2)c2c(N)ncnc21
43
CCC(=O)N1CCN(c2ccc(-n3c(=O)ccc4cnc5ccc(-c6cnc7ccccc7c6)cc5c43)cc2C(F)(F)F)CC1
4.6

Observed per cent of control on CDK8 (human) for COc1ccc(-c2ccc3c(N4CCOCC4)nc(N4C[C@@H](C)O[C@@H](C)C4)nc3n2)cc1CO , please.
100

Quick check: per cent of control on CDK8 (human), item COC(=O)Nc1ccc(-c2nc(N3CCOCC3)c3cnn(C4CCN(C(=O)OC)CC4)c3n2)cc1 ?
100

---

molecular target: RPS6KA5 KD1 KD2 (human) (UniProt O75582); settings: compound 1.0 µM
Sequence (O75582 whole entry, looked up): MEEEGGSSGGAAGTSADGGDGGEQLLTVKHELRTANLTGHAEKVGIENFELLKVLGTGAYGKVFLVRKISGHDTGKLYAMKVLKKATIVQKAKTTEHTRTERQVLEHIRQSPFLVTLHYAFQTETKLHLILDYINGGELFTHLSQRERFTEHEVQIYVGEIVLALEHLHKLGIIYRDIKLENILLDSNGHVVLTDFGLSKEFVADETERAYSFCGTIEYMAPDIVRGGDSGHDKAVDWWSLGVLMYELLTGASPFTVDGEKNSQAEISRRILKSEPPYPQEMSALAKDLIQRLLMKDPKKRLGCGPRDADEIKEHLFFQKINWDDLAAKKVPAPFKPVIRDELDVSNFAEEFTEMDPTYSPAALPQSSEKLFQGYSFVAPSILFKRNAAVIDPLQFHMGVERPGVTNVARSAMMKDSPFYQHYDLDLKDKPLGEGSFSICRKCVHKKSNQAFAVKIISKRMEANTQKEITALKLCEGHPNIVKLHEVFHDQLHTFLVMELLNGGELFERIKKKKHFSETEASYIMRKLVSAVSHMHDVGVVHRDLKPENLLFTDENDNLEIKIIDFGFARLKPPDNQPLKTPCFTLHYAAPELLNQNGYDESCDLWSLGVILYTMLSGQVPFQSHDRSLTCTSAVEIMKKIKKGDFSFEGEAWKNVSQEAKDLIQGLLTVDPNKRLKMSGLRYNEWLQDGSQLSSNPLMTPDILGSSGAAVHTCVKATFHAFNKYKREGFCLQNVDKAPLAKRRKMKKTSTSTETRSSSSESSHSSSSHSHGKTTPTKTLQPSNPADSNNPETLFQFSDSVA
The compounds listed here are annotated with their per cent of control.
Numbers only here, please. The scale is %.

// below: answered compounds
CCC(=O)N1CCN(c2ccc(-n3c(=O)ccc4cnc5ccc(-c6cnc7ccccc7c6)cc5c43)cc2C(F)(F)F)CC1
86
CC(C)n1nc(-c2cc3cc(O)ccc3[nH]2)c2c(N)ncnc21
105
COC(=O)Nc1ccc(-c2nc(N3CCOCC3)c3cnn(C4CCN(C(=O)OC)CC4)c3n2)cc1
83

Notebook: pull reported per cent of control for RPS6KA5 KD1 KD2 (human) (UniProt O75582), entry COc1ccc(-c2ccc3c(N4CCOCC4)nc(N4C[C@@H](C)O[C@@H](C)C4)nc3n2)cc1CO
101

---

Recorded kinase still bound, per cent of control for the following compounds
biological target: TNK1 (human); assay: KINOMEscan competition binding; conditions: compound 10.0 µM
Give the quantity in %, number only.

Some compounds with known kinase still bound, per cent of control results, for comparison:
CCC(=O)N1CCN(c2ccc(-n3c(=O)ccc4cnc5ccc(-c6cnc7ccccc7c6)cc5c43)cc2C(F)(F)F)CC1
6.8
COC(=O)Nc1ccc(-c2nc(N3CCOCC3)c3cnn(C4CCN(C(=O)OC)CC4)c3n2)cc1
100
CC(C)n1nc(-c2cc3cc(O)ccc3[nH]2)c2c(N)ncnc21
34

Attention now shifts to the item below.
Quick one: kinase still bound, per cent of control for COc1ccc(-c2ccc3c(N4CCOCC4)nc(N4C[C@@H](C)O[C@@H](C)C4)nc3n2)cc1CO ?
100

---

target: PRKCZ (human); settings: compound 10.0 µM
measurement type: per cent of control (%)
Give the value, in units of %, as a plain number.

CC(C)n1nc(-c2cc3cc(O)ccc3[nH]2)c2c(N)ncnc21
51
CCC(=O)N1CCN(c2ccc(-n3c(=O)ccc4cnc5ccc(-c6cnc7ccccc7c6)cc5c43)cc2C(F)(F)F)CC1
106
COc1ccc(-c2ccc3c(N4CCOCC4)nc(N4C[C@@H](C)O[C@@H](C)C4)nc3n2)cc1CO
84

Note: attention shifts to another entry.
Dear colleague, I am looking for the recorded per cent of control of the following molecule: COC(=O)Nc1ccc(-c2nc(N3CCOCC3)c3cnn(C4CCN(C(=O)OC)CC4)c3n2)cc1
106
